Molecular target: Cholinesterase (Equus caballus) (UniProt P81908)
Sequence (P81908 whole entry): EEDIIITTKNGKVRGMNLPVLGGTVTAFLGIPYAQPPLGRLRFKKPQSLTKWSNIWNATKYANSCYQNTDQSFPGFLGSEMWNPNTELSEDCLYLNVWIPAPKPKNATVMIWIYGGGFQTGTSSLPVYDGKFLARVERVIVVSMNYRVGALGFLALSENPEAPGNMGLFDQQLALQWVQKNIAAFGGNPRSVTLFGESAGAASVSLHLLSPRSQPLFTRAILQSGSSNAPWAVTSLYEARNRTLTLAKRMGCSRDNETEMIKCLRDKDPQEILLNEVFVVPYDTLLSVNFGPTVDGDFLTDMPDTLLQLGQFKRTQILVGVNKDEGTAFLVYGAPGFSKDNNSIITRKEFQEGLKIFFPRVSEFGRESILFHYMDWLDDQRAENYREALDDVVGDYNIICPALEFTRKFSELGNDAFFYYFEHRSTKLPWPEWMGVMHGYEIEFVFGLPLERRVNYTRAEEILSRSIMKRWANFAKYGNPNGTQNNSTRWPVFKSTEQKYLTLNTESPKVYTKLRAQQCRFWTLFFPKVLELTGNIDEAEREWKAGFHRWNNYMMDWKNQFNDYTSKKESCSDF
Conditions: at 2 mg/mL
Description: Inhibition of horse BChE at 2 mg/ml by Ellman's method
Where a name gives a salt, the structure may show the parent alone.

{"compound": "C[C@@H]1O[C@@H](O[C@H]2[C@H](Oc3cc(O)c4c(c3)O[C@H](c3ccc(O)cc3)CC4=O)O[C@H](CO)[C@@H](O)[C@@H]2O)[C@H](O)[C@H](O)[C@H]1O", "inhibition, %": -5.49}
{"compound": "CN1C(=O)C[C@H](C(=O)O)[C@H]1c1cccnc1 (relative stereo)", "inhibition, %": -4.39}
{"compound": "COc1cc(C(=O)O[C@H]2C[C@@H]3CC[C@]2(C)C3(C)C)ccc1O", "inhibition, %": 1.44}
{"compound": "O=C1C[C@@H](c2ccc(O)cc2)Oc2cc(O[C@@H]3O[C@H](CO)[C@@H](O)[C@H](O)[C@H]3O)cc(O)c21", "inhibition, %": -1.72}
{"compound": "O=C1c2ccccc2-n2c1nc1ccccc1c2=O", "inhibition, %": -2.13}
{"compound": "C=C1CC[C@@H]2O[C@]2(C)CC[C@@H]2[C@@H]1CC2(C)C", "inhibition, %": 1.64}
{"compound": "O=c1c(O)c(-c2cc(O)c(O)c(O)c2)oc2cc(O)cc(O)c12", "inhibition, %": -3.14}
{"compound": "Cn1cnc2c1c(=O)[nH]c(=O)n2C", "inhibition, %": 3.88}
{"compound": "O=C1/C(=C/c2ccc(O)c(O)c2)Oc2cc(O)ccc21", "inhibition, %": -2.22}
{"compound": "COc1cc(C(=O)OC2CC3CCC(C2)N3C)ccc1O (stereo unspecified)", "inhibition, %": 6.73}
{"compound": "COC1=C[C@@H]2[C@@H]3Cc4ccc(OC)c(O)c4[C@]2(CCN3C)CC1=O", "inhibition, %": 5.14}
{"compound": "CC(C)=CCC[C@]1(C)C=Cc2c(O)c3c(c(CC=C(C)C)c2O1)O[C@]12C(=C[C@@H]4C[C@H]1C(C)(C)O[C@@]2(C/C=C(/C)C(=O)O)C4=O)C3=O", "inhibition, %": 8.47}
{"compound": "c1ccc2c(c1)CN1CCCC1=N2 [DESOXYPEGANINE HYDROCHLORIDE HYDRATE]", "inhibition, %": 94.8}
{"compound": "CO[C@@H]1[C@H](O)C[C@@H](O[C@@H]2C[C@H](Oc3cc4cc5c(c(O)c4c(O)c3C)C(=O)[C@@H](O[C@H]3C[C@@H](O[C@H]4C[C@@H](O[C@H]6C[C@](C)(O)[C@@H](OC(C)=O)[C@H](C)O6)[C@H](O)[C@@H](C)O4)[C@H](O)[C@@H](C)O3)[C@H]([C@H](OC)C(=O)[C@@H](O)[C@@H](C)O)C5)O[C@H](C)[C@@H]2OC(C)=O)O[C@@H]1C", "inhibition, %": 3.95}
{"compound": "O=C1CCC[C@@H]2[C@H]3CCCN4CCC[C@@H](CN12)[C@@H]34", "inhibition, %": 22.4}
{"compound": "C[C@@H]1Cc2c(Cl)cc(C(=O)N[C@@H](Cc3ccccc3)C(=O)O)c(O)c2C(=O)O1", "inhibition, %": 8.75}
{"compound": "CCOC(=O)[C@H]1O[C@@H]1C(=O)N[C@@H](CC(C)C)C(=O)NCCC(C)C", "inhibition, %": -0.73}
{"compound": "CCCCC[C@H](O)/C=C/[C@@H]1[C@@H](C/C=C\\CCCC(=O)O)[C@@H](O)C[C@H]1O", "inhibition, %": 5.03}
{"compound": "CC(=O)C1=C(O)C=C2Oc3c(C(C)=O)c(O)c(C)c(O)c3[C@@]2(C)C1=O", "inhibition, %": 4.28}
{"compound": "N[C@@H](Cn1oc(=O)[nH]c1=O)C(=O)O", "inhibition, %": 2.65}
{"compound": "CO[C@H]1[C@H](OC(=O)c2ccc(C)[nH]2)[C@H](O)[C@@H](Oc2ccc3c(O)c(NC(=O)c4c[nH]c(C(=O)Nc5c(O)c6ccc(O[C@H]7OC(C)(C)[C@@H](OC)[C@H](OC(=O)c8ccc(C)[nH]8)[C@@H]7O)c(C)c6oc5=O)c4C)c(=O)oc3c2C)OC1(C)C", "inhibition, %": 3.14}
{"compound": "O=C(/C=C/c1ccc(O)c(O)c1)O[C@H](Cc1ccc(O)c(O)c1)C(=O)O", "inhibition, %": -3.64}
{"compound": "CC[C@@H]1/C=C/C=C/C[C@H](C)[C@H](O)[C@](C)(O)C(=O)[C@H](C)[C@@H](O)[C@H](C)C(=O)[C@H](C)[C@@H](O)[C@H](C)/C=C/C(=O)O[C@H]2[C@@H](C)[C@@H](CC1)O[C@@]1(CC[C@@H](C)[C@@H](C[C@H](C)O)O1)[C@@H]2C", "inhibition, %": 1.56}
{"compound": "COc1cccc2c1cc([N+](=O)[O-])c1c(C(=O)O)cc3c(c12)OCO3", "inhibition, %": 22.7}
{"compound": "COC1=CC(=O)OC(/C=C/c2ccccc2)C1 (racemic)", "inhibition, %": -2.41}
{"compound": "c1cc2c(cc1[C@H]1OC[C@@H]3[C@H]1CO[C@H]3c1ccc3c(c1)OCO3)OCO2", "inhibition, %": -3.5}
{"compound": "CC(C)=CCC/C(C)=C/CC/C(C)=C/CC/C(C)=C/C(=O)O", "inhibition, %": -2.05}
{"compound": "C[C@H]1[C@H](C)CC[C@]2(C(=O)O)CC[C@]3(C)C(=CC[C@@H]4[C@@]5(C)C[C@@H](O)[C@H](O)[C@@](C)(CO)[C@@H]5[C@H](O)C[C@]43C)[C@H]12", "inhibition, %": -7.93}
{"compound": "CCCC(=O)O[C@@H]1[C@@H](C)[C@@]2(O)[C@@H](C=C(CO)C[C@]3(O)C(=O)C(C)=C[C@@H]23)[C@@H]2C(C)(C)[C@]12OC(=O)CCC (stereo in doubt; form 1)", "inhibition, %": 0.87}
{"compound": "CN[C@@H]1[C@H](O)[C@H](NC)[C@H]2O[C@@]3(O)C(=O)C[C@@H](C)O[C@H]3O[C@@H]2[C@H]1O", "inhibition, %": -9.67}
{"compound": "CC(=O)OC[C@]12CCC(C)=C[C@H]1O[C@@H]1[C@H](O)[C@@H](OC(C)=O)[C@@]2(C)[C@]12CO2", "inhibition, %": 12.3}
